- Test system: NCI-H23
- test-name: Growth inhibition of human NCI-H23 cells after 48 hrs by sulforhodamine B assay
- Assay type: functional
- condition-parameters: NCI-H23, 48 h
fulfilled if GI50 is below 400 nM. not fulfilled if not; exact matches included in not fulfilled.

Ask: State whether 400 nM exceeds GI50 recorded for `COc1ccc(-c2onc(N)c2-c2cc(OC)c3c(c2)OCO3)cc1` .
Reply: not fulfilled

Ask: State whether 400 nM exceeds GI50 recorded for `COc1ccc(-c2noc(N)c2-c2cc(OC)c3c(c2)OCO3)cc1` .
Reply: not fulfilled

Ask: State whether 400 nM exceeds GI50 recorded for `COc1ccc(-c2c(-c3cc(OC)c(OC)c(OC)c3)noc2N)cc1` .
Reply: fulfilled

Ask: State whether 400 nM exceeds GI50 recorded for `COc1ccc(-c2c(-c3cc(OC)c4c(c3)OCCO4)noc2N)cc1` .
Reply: fulfilled

Ask: State whether 400 nM exceeds GI50 recorded for `COc1ccc(-c2c(-c3cc(OC)c4c(c3)OCO4)noc2N)cc1` .
Reply: fulfilled

---

- Tested on: HCT-15
- test-name: Growth inhibition of human HCT15 cells after 48 hrs by sulforhodamine B assay
- Type: functional
- condition-parameters: HCT-15, 48 h
met if GI50 is below 600 nM. not met if not; exact matches included in not met.

Ask: State whether 600 nM exceeds GI50 recorded for COc1ccc(/C=C\c2cc(OC)c(OC)c(OC)c2)cc1O [COMBRETASTATIN A4] .
Reply: met

Ask: State whether 600 nM exceeds GI50 recorded for `COc1ccc(-c2c(-c3cc(OC)c(OC)c(OC)c3)noc2N)cc1` .
Reply: met

Ask: State whether 600 nM exceeds GI50 recorded for `COc1ccc(-c2noc(N)c2-c2cc(OC)c3c(c2)OCO3)cc1` .
Reply: not met

Ask: State whether 600 nM exceeds GI50 recorded for `COc1ccc(-c2onc(N)c2-c2cc(OC)c3c(c2)OCO3)cc1` .
Reply: not met

Ask: State whether 600 nM exceeds GI50 recorded for `COc1ccc(-c2c(-c3cc4c(c(OC)c3OC)OCO4)noc2N)cc1` .
Reply: met

Ask: State whether 600 nM exceeds GI50 recorded for `COc1ccc(-c2c(-c3cc(OC)c4c(c3)OCCO4)noc2N)cc1` .
Reply: met

Ask: State whether 600 nM exceeds GI50 recorded for `COc1ccc(-c2c(-c3cc(OC)c4c(c3)OCO4)noc2N)cc1` .
Reply: met

---

- Tested on: NCI-H460
- test-name: Growth inhibition of human NCI-H460 cells after 48 hrs by sulforhodamine B assay
- Assay type: functional
- condition-parameters: NCI-H460, 48 h
test-readout: GI50 (nM)
Kindly answer with a numeric value in nM, unit omitted.

Ask: Please state recorded GI50 (tested on NCI-H460) of `COc1ccc(/C=C\c2cc(OC)c(OC)c(OC)c2)cc1O`
Reply: 3.11

Ask: Please state recorded GI50 (tested on NCI-H460) of `COc1ccc(-c2noc(N)c2-c2cc(OC)c3c(c2)OCO3)cc1`
Reply: 2870

Ask: Please state recorded GI50 (tested on NCI-H460) of `COc1ccc(-c2c(-c3cc(OC)c4c(c3)OCO4)noc2N)cc1`
Reply: 35.2

Ask: Please state recorded GI50 (tested on NCI-H460) of `COc1ccc(-c2onc(N)c2-c2cc(OC)c3c(c2)OCO3)cc1`
Reply: 3040

Ask: Please state recorded GI50 (tested on NCI-H460) of `COc1ccc(-c2c(-c3cc4c(c(OC)c3OC)OCO4)noc2N)cc1`
Reply: 364

---

- Test system: T47D
- test-name: Growth inhibition of human T47D cells after 48 hrs by sulforhodamine B assay
- Assay type: functional
What GI50 was measured for each of the following?
Kindly answer with a numeric value in nM, unit omitted.

Ask: What value of GI50 has been recorded for this entry: `COc1ccc(-c2c(-c3cc(OC)c4c(c3)OCCO4)noc2N)cc1`
Reply: 27.2

Ask: What value of GI50 has been recorded for this entry: `COc1ccc(-c2noc(N)c2-c2cc(OC)c3c(c2)OCO3)cc1`
Reply: 2750

Ask: What value of GI50 has been recorded for this entry: `COc1ccc(-c2onc(N)c2-c2cc(OC)c3c(c2)OCO3)cc1`
Reply: 4410

Ask: What value of GI50 has been recorded for this entry: `COc1ccc(-c2c(-c3cc(OC)c4c(c3)OCO4)noc2N)cc1`
Reply: 39.4

Ask: What value of GI50 has been recorded for this entry: `COc1ccc(-c2c(-c3cc4c(c(OC)c3OC)OCO4)noc2N)cc1`
Reply: 568

---

- Test system: OVCAR-3
- test-name: Growth inhibition of human OVCAR3 cells after 48 hrs by sulforhodamine B assay
- Format: functional
- condition-parameters: OVCAR-3, 48 h
true (1) if GI50 is below 20 nM. false (0) if not; exact matches included in false (0).

Ask: State whether 20 nM exceeds GI50 recorded for `COc1ccc(-c2noc(N)c2-c2cc(OC)c3c(c2)OCO3)cc1` .
Reply: false (0)

Ask: State whether 20 nM exceeds GI50 recorded for `COc1ccc(-c2c(-c3cc(OC)c4c(c3)OCCO4)noc2N)cc1` .
Reply: true (1)

Ask: State whether 20 nM exceeds GI50 recorded for `COc1ccc(-c2c(-c3cc4c(c(OC)c3OC)OCO4)noc2N)cc1` .
Reply: false (0)

Ask: State whether 20 nM exceeds GI50 recorded for `COc1ccc(-c2onc(N)c2-c2cc(OC)c3c(c2)OCO3)cc1` .
Reply: false (0)

Ask: State whether 20 nM exceeds GI50 recorded for `COc1ccc(-c2c(-c3cc(OC)c4c(c3)OCO4)noc2N)cc1` .
Reply: false (0)

Ask: State whether 20 nM exceeds GI50 recorded for `COc1ccc(-c2c(-c3cc(OC)c(OC)c(OC)c3)noc2N)cc1` .
Reply: true (1)

Ask: State whether 20 nM exceeds GI50 recorded for `COc1ccc(/C=C\c2cc(OC)c(OC)c(OC)c2)cc1O` .
Reply: true (1)

---

- Tested on: Paracentrotus lividus
- test-name: Antimitotic activity in sea urchin fertilized egg assessed as cleavage arrest treated at 8 to 20 mins post-fertilization measured at 2.5 to 5.5 hrs post-fertilization
- Assay type: functional
What EC was measured for each of the following?
Kindly answer with a numeric value in µM, unit omitted.

Ask: What value of EC has been recorded for this entry: `COc1ccc(/C=C\c2cc(OC)c(OC)c(OC)c2)cc1O`
Reply: 0.01

Ask: What value of EC has been recorded for this entry: `COc1ccc(-c2c(N)noc2-c2cc(OC)c3c(c2)OCCO3)cc1`
Reply: 0.02

Ask: What value of EC has been recorded for this entry: `COc1ccc(-c2c(-c3cc(OC)c4c(c3)OCCO4)noc2N)cc1`
Reply: 0.01

Ask: What value of EC has been recorded for this entry: `COc1ccc(-c2c(-c3cc(OC)c4c(c3)OCO4)noc2N)cc1`
Reply: 0.002

Ask: What value of EC has been recorded for this entry: `COc1ccc(-c2c(-c3ccccc3)noc2N)cc1OC`
Reply: 10

---

- Test system: HL-60(TB)
- test-name: Growth inhibition of human HL-60(TB) cells after 48 hrs by sulforhodamine B assay
- Type: functional
- condition-parameters: HL-60, 48 h
1 (yes) if GI50 is below 40 nM. 0 (no) if not; exact matches included in 0 (no).

Ask: State whether 40 nM exceeds GI50 recorded for `COc1ccc(-c2c(-c3cc(OC)c4c(c3)OCCO4)noc2N)cc1` .
Reply: 1 (yes)

Ask: State whether 40 nM exceeds GI50 recorded for `COc1ccc(-c2noc(N)c2-c2cc(OC)c3c(c2)OCO3)cc1` .
Reply: 0 (no)

Ask: State whether 40 nM exceeds GI50 recorded for `COc1ccc(-c2c(-c3cc4c(c(OC)c3OC)OCO4)noc2N)cc1` .
Reply: 0 (no)

Ask: State whether 40 nM exceeds GI50 recorded for COc1ccc(/C=C\c2cc(OC)c(OC)c(OC)c2)cc1O [COMBRETASTATIN A4] .
Reply: 1 (yes)

Ask: State whether 40 nM exceeds GI50 recorded for `COc1ccc(-c2c(-c3cc(OC)c4c(c3)OCO4)noc2N)cc1` .
Reply: 1 (yes)

Ask: State whether 40 nM exceeds GI50 recorded for `COc1ccc(-c2c(-c3cc(OC)c(OC)c(OC)c3)noc2N)cc1` .
Reply: 1 (yes)

Ask: State whether 40 nM exceeds GI50 recorded for `COc1ccc(-c2onc(N)c2-c2cc(OC)c3c(c2)OCO3)cc1` .
Reply: 0 (no)

---

- Test system: HCT-116
- test-name: Growth inhibition of human HCT116 cells after 48 hrs by sulforhodamine B assay
- Type: functional
- condition-parameters: HCT-116, 48 h
What GI50 was measured for each of the following?
Kindly answer with a numeric value in nM, unit omitted.

Ask: What value of GI50 has been recorded for this entry: `COc1ccc(/C=C\c2cc(OC)c(OC)c(OC)c2)cc1O`
Reply: 3.28

Ask: What value of GI50 has been recorded for this entry: `COc1ccc(-c2c(-c3cc4c(c(OC)c3OC)OCO4)noc2N)cc1`
Reply: 314

Ask: What value of GI50 has been recorded for this entry: `COc1ccc(-c2noc(N)c2-c2cc(OC)c3c(c2)OCO3)cc1`
Reply: 2440

Ask: What value of GI50 has been recorded for this entry: `COc1ccc(-c2c(-c3cc(OC)c4c(c3)OCO4)noc2N)cc1`
Reply: 46.3

Ask: What value of GI50 has been recorded for this entry: `COc1ccc(-c2onc(N)c2-c2cc(OC)c3c(c2)OCO3)cc1`
Reply: 2010
